- systemTested: Carbonic anhydrase 2 (Homo sapiens) (UniProt P00918)
- assayName: CAII small-molecule binders, profiling panel, biochemical, small-molecule microarray, Alexa647-labelled CAII (AID 1122)
- condition: CAII-A647 binding fluorescence, higher = more signal
Classification field: rule met = composite z-score at or over 0.3; rule not met = composite z-score under 0.3.

Request: Textbook exercise: given the entry `O=C1C=C[C@@H](O)[C@@H]2[C@@H]3C(=O)N(C[C@@H]4CCCO4)C(=O)[C@@H]3CC[C@@H]12` , state whether its composite z-score is greater than or equal to 0.3.
Result: rule not met

Request: Is composite z-score at least 0.3? Consider `CO[C@H]1COC(=O)CC=C[C@@H](C)[C@H](NS(=O)(=O)c2ccc(C)cc2)COC(=O)CCC[C@@H]1C`
Result: rule not met

Request: Could you verify whether the entry CCOC(=O)[C@H](CC(C)C)NC(=O)CCC1CC(OC(=O)NCc2cccc3ccccc23)CC2(CCCC(COC(=O)NCCOc3ccccc3)O2)O1 (stereo partly drawn) shows composite z-score of no less than 0.3?
Result: rule met

###

- systemTested: Streptavidin (Streptomyces avidinii) (UniProt P22629)
- Sequence (P22629 whole entry, looked up): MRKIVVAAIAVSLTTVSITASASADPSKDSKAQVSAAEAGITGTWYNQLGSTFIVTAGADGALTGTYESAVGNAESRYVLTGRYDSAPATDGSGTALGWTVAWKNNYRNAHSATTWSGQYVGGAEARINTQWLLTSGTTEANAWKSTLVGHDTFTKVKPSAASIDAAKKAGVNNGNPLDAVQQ
- assayName: streptavidin binders on small-molecule microarray, primary screen, artefact control for SMM compound annotation, biophysical, 635/667 nm fluorescence (AID 1147);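 also: signal reflects streptavidin binding to arrayed compounds as a control protein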
- condition: streptavidin binding, higher = more signal
Entries and their measured composite z-score follow.
No unit in the answer, please; the number alone is enough.

// below: answered compounds
COC(=O)CC=C[C@@H](C)[C@@H](C=NOC(C)CN1CCCc2nc(C)c(C)cc21)OC (some centres not stated)    1.21
CCOC(=O)[C@H](CC(C)C)NC(=O)CCC1CC(OC(=O)NCc2cccc3ccccc23)CC2(CCCC(COC(=O)NCCC(C)C)O2)O1 (some centres not stated)    -0.589
CC=CC1=C(CO)C(=O)[C@@H]2O[C@@H]2C1=O    -0.842
CCOC(=O)NN=C1C[C@@H](O)[C@@H](O)[C@@H]2[C@@H]3C(=O)N(Cc4ccccc4)C(=O)[C@@H]3CC[C@H]12    1.09
CON=C[C@@H](C)[C@H](OCc1ccccc1)C(C)C    -0.0087

Form: compound = `CCc1cc2c(nc1CC)CCN(CCC(C)=NO[C@@H](C)c1cn([C@H](CO)Cc3ccccc3)nn1)C2` ; composite z-score = 0.453

Sure, the documented composite z-score for CCOC(=O)[C@H](Cc1ccccc1)NC(=O)CCC1CC(OC(=O)NCc2cccc3ccccc23)CC2(CCCC(COC(=O)NCC(c3ccccc3)c3ccccc3)O2)O1 (some centres not stated) is 0.164

###

Reported z-score values follow for various compounds
- assayName: E. coli growth modulation, two-sided OD650, primary screen, E. coli filamentation project, strain DRC41, 24 h (AID 1093);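 also: MC1000 strain lacking acrAB efflux and sulA so SOS filamentation is blocked; test concentration not given here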
- condition: OD650, 24 h, higher = more signal, called active from +8 up or from −8 down
Output: the number by itself.

Example cases with answers are listed next.
O=C(C=Cc1ccc2c(c1)OCO2)c1ccc(F)cc1    0.704
C#CCCCON=C1[C@H]2CCn3c(=O)n(-c4ccccc4)c(=O)n3[C@H]2[C@H](O)[C@@H]2O[C@H]12    -0.623
CCCNC(=O)OC[C@H]1O[C@H](CCON=C(C)CCN2CCc3nc(CC)c(CC)cc3C2)C=C[C@@H]1Oc1ccc(OC)cc1    0.004

Given item `C[C@@H]1NC(=O)[C@@H](C)COC(=O)[C@H](C)NC(=O)[C@@H](C)COC1=O` , the value recorded as its z-score is -0.0698

// z-score lookup, compound = `CCCCC#C[C@@H]1C=C[C@H](Oc2ccc(C(=O)OC)cc2)[C@@H](COC(=O)OCC)O1` , result: 0.197

`C#CCCCON=C1C[C@@H](O)[C@@H](O)[C@@H]2[C@@H]3C(=O)N(c4ccc(F)cc4F)C(=O)[C@@H]3CC[C@@H]12` has a reported z-score of 0.336

Looking up `CO[C@@H]1COC(=O)[C@@H]2CCCN2C(=O)[C@@H](C)COC(=O)CC=C[C@H]1C` , I see its z-score listed as -0.152

Please fill in: z-score reported for `COC(=O)CC=C[C@@H](C)[C@@H](C=NOC[C@H]1O[C@H](c2ccccc2)C=C[C@@H]1Oc1ccc(OC)cc1)NS(=O)(=O)c1ccc(C)cc1` = -0.513

Please fill in: z-score reported for `COC(=O)CC=C[C@@H](C)[C@@H](C=NO[C@@H]1O[C@H](COC(C)=O)[C@@H](OC(C)=O)[C@H](OC(C)=O)[C@H]1OC(C)=O)OC` = -0.742

Entry `COc1ccc(C#C[C@@H]2C=C[C@H](OC(C)=O)[C@@H](COC(C)=O)O2)cc1` ; z-score = 1.04
